- Tested on: MCF7 breast
- PROTOCOL_TEXT: NCI tumour cell line growth inhibition, 48 h
# TGI per entry

Some compounds with known TGI results, for comparison:
COMPOUND | TGI
C[C@H]1CC[C@@H]2[C@@H](C)C[C@H]3[C@@H]4C(C)(C)OC(=O)[C@]4(C)C(=O)[C@@]23C1=O | > 100 µM
CN(C)CCNC(=O)c1cc([N+](=O)[O-])cn1C | > 100 µM
COC(=O)CSC1CC(=O)c2c(Cl)sc(Cl)c21 (configuration not stated) | > 100 µM
COc1ccc2[nH]c(C(O)(Cc3cccnc3)Cc3cccnc3)cc2c1 | > 100 µM
O=C(CNc1c(Cl)cccc1Cl)Nc1ccc(-c2nc3ccccc3s2)cc1 | 5.7 µM

Consider the compound COC1/C=C/C(C)C(OC)CC(O)/C=C/C(C)C(C(C)C(OC)C(C)CCC(=O)C(C)C(C/C=C/N(C)C=O)OC)OC(=O)/C=C/C=C(\C)CC(OC)CC2=CC(=O)O[C@@H](C(C)C(OC)C1)[C@H]2O (some centres not stated) tested on MCF7 breast; state its TGI.
0.409 µM

Consider the compound O=C(O)c1sccc1O tested on MCF7 breast; state its TGI.
> 100 µM

Consider the compound CCOc1ccc(NC(=O)/C(=N\N)C(C(=O)OC)c2nc3ccc(Cl)cc3[nH]c2=O)cc1 (configuration not stated) tested on MCF7 breast; state its TGI.
> 100 µM

---

- System: MDA-MB-435
Write down the outcome that applies. Available outcomes: active, inactive

These solved cases illustrate the format of a correct answer.
COMPOUND | SUBJECT_OF_TEST | CATEGORY_LABEL
COc1ccc(F)cc1/C=C/C(=O)/C=C(/C=C/c1cc(F)ccc1OC)OB(F)F | MDA-MB-435 | inactive
Cc1cc(I)cc(CN(C)CCN2CCOCC2)c1O | MDA-MB-435 | inactive
Nc1c(C(=O)Nc2ccccn2)sc2nc3c(cc12)CCCCC3 | MDA-MB-435 | active
Cc1ccc(C)c(COc2cc(NC(=O)c3ccc4c(c3)OCO4)ccc2N(C)S(C)(=O)=O)c1 | MDA-MB-435 | active
CC(C)=NNc1ncnc2c1ncn2C1OC(CO)C(O)C1O (stereo unspecified) | MDA-MB-435 | inactive

Continue with the compound presented below.
What did the test return for O=C(Nc1ccc(Oc2cccc(Cl)c2)c(Cl)c1)c1cnccn1 ?
active

---

# TGI per entry
- Test system: SNB-75 CNS
- PROTOCOL_TEXT: NCI tumour cell line growth inhibition, 48 h
Numeric answer only, unit µM assumed.

Some compounds with known TGI results, for comparison:
COMPOUND | TGI (µM)
NN/C(=N\S(=O)(=O)c1ccc(-c2ccccn2)s1)Nc1ccc(Cl)cc1 | 69.2
Nc1ccc2c(c1)Cc1ccccc1-2 | 94.3
COc1cc2oc(-c3ccc4c(c3)OCO4)c(OC)c(=O)c2c(OC)c1OC | 94
O=C1OC(=O)C2=C1C(c1cccs1)C=C(c1cccnc1)N2c1ccncc1 (centres undefined) | 35.8
Cc1nc2ccccc2c(/C=C/c2ccc(Cl)cc2)c1C(=O)/C=C/c1ccc(F)cc1 | 2.37
CSc1nc(SC)c2cnn(CC3CO3)c2n1 (centres undefined) | 44.7
COc1cc(NC(=O)c2ccc(C(F)(F)F)nc2Nc2ccc(Cl)cc2C)cc(OC)c1OC | 18.5
COc1cc2c(cc1OCCCNC(=O)/C=C1/C[C@H]3C=Nc4cc(OCc5ccccc5)c(OC)cc4C(=O)N3C1)NC(=O)[C@@H]1CCCN1C2=O | 98.1
CN1CCN(CCCCN2c3ccccc3Sc3ccc(C(=O)c4ccccc4)cc32)CC1 | 2.58
COc1cc(NC(=O)c2ccc(C(F)(F)F)nc2Nc2cc(Cl)ccc2C)cc(OC)c1OC | 24.4

Tell me TGI reported for O=c1c2ccccc2n2c(=S)[nH]nc2n1-c1ccccc1
84

Tell me TGI reported for CCCCCCCCCCCC[C@H](O)[C@H]1CC[C@H]([C@H](O)CCCC[C@H](O)CCCCC[C@@H](O)CC2=C[C@H](C)OC2=O)O1
31.7
